- methodDescription: Primary qHTS for inhibitors of nuclear receptor binding SET domain protein 2 (NSD2) in an RCH-ACV wild type WT cells (2C) (AID 1645877); note: nearly all actives have a fitted effect of over 70% in size; note: potency is the fitted concentration of half-maximal effect
- conditionSummary: RCH-ACV (leukaemia line) NSD2 WT (2C) viability, CellTiter-Glo, 72 h; series mostly up to 44.9 µM
Records with an inconclusive call do not appear. Active and inactive are the calls of the source. Calls come from the whole dose curve; as a rule, active = well fitted inhibition curve with a large enough effect; inconclusive = small, poorly fitted or top-dose-only effect; inactive = no such curve, though single readings can be large or run the other way.
parameter: Potency

# annotated cases, reported Potency shown
* CC(C)(C)c1cc(NC(=O)Nc2ccc(-c3cn4c(n3)sc3cc(OCCN5CCOCC5)ccc34)cc2)no1 | inactive
* O=C(O)c1ccc2cc(-c3ccc(O)c(C45CC6CC(CC(C6)C4)C5)c3)ccc2c1 | 590 nM (active)
* N#Cc1c(O)c2c(-c3ccc(-c4ccccc4O)cc3)csc2[nH]c1=O | inactive
* O=C(NC1CCNCC1)c1[nH]ncc1NC(=O)c1c(Cl)cccc1Cl | 590 nM (active)
* CN(c1ncccc1CNc1nc(Nc2ccc3c(c2)CC(=O)N3)ncc1C(F)(F)F)S(C)(=O)=O | 8330 nM (active)

// next entry
// lookup Potency for `CC[C@@]1(O)C(=O)OCc2c1cc1n(c2=O)Cc2cc3cc(O)ccc3nc2-1` 11.8 nM (active)

All figures here come from PubChem BioAssay (NCATS).
